// values below are reported OD450
Target: T1, human TIM-3 extracellular domain protein with hFc tag (hTIM-3-hFc) (human, UniProt Q8TDQ0 22-200)
T1 construct: not shown: human IgG Fc fragment (hFc) of the pCpC vector
T1 sequence: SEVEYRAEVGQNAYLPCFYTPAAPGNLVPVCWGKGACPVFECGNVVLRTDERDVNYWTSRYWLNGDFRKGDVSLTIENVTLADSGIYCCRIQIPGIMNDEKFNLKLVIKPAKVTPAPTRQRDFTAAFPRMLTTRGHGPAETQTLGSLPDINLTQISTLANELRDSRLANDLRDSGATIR
Experiment: ELISA, coated human TIM-3 ECD protein, 0.0007 nM antibody
The reply should be a number, written without any unit.

Recorded OD450, per entry:
BINDER	OD450
7A4F10 fully human TIM-3 antibody (human IgG4, kappa) (antibody, V domains shown) VH: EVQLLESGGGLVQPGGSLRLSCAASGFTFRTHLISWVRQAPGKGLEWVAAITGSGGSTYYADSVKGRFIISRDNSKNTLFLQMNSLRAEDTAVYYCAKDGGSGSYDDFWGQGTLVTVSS VL: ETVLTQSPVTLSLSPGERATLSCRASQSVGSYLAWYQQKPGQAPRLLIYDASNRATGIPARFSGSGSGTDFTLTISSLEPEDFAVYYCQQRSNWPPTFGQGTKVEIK	0.11
39E5H1 fully human TIM-3 antibody (human IgG4, kappa) (antibody, V domains shown) VH: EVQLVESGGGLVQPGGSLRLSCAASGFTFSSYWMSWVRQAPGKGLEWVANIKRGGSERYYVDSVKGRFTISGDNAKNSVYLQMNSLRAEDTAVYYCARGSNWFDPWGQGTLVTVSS VL: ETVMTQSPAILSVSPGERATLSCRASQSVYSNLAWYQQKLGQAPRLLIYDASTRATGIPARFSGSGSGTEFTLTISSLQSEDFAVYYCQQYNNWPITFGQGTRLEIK	0.1
18D2H2 fully human TIM-3 antibody (human IgG4, kappa) (antibody, V domains shown) VH: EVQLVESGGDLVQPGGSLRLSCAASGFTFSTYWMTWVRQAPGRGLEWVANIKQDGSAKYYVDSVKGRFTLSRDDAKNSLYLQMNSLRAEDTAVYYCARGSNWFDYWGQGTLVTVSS VL: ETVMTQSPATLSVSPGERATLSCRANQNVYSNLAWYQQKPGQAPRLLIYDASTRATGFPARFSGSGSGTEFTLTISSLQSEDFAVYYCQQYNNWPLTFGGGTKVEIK	0.11

Qu. I have this binder here, 57F4E5 fully human TIM-3 antibody (human IgG4, kappa) (antibody, V domains shown) VH: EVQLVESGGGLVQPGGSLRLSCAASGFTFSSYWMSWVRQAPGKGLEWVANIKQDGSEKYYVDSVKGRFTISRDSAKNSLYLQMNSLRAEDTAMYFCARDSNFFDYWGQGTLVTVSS VL: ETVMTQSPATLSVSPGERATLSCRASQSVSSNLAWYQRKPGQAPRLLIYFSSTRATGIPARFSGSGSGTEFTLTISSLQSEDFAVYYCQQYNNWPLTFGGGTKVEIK , and I need its recorded OD450.
Ans. 0.11

Source listed as patent US20220033501A1.
